biological target: aurora A kinase (AURKA) (Homo sapiens); construct: purchased BPS Bioscience (assay run externally by the vendor); test: ADP-Glo kinase assay, Aurora A; assay type: biochemical; details: Log[nM] 1.5; Set1
Sequence (O14965 whole entry): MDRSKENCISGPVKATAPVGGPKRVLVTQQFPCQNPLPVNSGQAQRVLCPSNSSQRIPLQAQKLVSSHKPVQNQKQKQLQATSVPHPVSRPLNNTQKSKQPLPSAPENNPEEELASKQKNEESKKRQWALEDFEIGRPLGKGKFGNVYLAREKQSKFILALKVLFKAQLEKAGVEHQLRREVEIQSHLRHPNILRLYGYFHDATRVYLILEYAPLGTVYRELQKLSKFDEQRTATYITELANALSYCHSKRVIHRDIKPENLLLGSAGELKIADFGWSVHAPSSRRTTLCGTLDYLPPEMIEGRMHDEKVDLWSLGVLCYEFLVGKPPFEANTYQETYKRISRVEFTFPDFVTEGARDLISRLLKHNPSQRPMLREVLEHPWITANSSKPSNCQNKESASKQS
Listed here: items and their measured Aurora A % Activity Set1.

MOLECULE	MEASURED TARGET	Aurora A % Activity Set1
Clc1ccc(Nc2ncnc3[nH]ccc23)cc1Cl	aurora A kinase (AURKA) (Homo sapiens)	98%
Clc1ccccc1Nc1ncnc2[nH]ccc12	aurora A kinase (AURKA) (Homo sapiens)	111%
COc1ccc(Nc2ncnc3[nH]ccc23)cc1	aurora A kinase (AURKA) (Homo sapiens)	111%
c1ccc(Nc2ncnc3[nH]ccc23)cc1	aurora A kinase (AURKA) (Homo sapiens)	93%
CN[C@@H]1C[C@H]2O[C@@](C)([C@@H]1OC)n1c3ccccc3c3c4c(c5c6ccccc6n2c5c31)C(=O)NC4 [Staurosporine, staurosporine, reference compound]	aurora A kinase (AURKA) (Homo sapiens)	73%
c1ccc(Oc2ccc(Nc3ncnc4[nH]ccc34)cc2)cc1	aurora A kinase (AURKA) (Homo sapiens)	103%
Nc1nc(Nc2cccc(Br)c2)c2cc[nH]c2n1	aurora A kinase (AURKA) (Homo sapiens)	109%
Cc1cccc(Nc2ncnc3[nH]ccc23)c1	aurora A kinase (AURKA) (Homo sapiens)	97%
Clc1cccc(Nc2ncnc3[nH]ccc23)c1	aurora A kinase (AURKA) (Homo sapiens)	102%
